Measured Kel accompanies every entry in the list below.
test: Pharmacokinetics test in rats (oral administration); assay type: in vivo, LEW/CrlCrlj rats; settings: oral 2 mg/mL solution at 5 mL/kg, mean n = 4
Field: numeric (h⁻¹). Do not append units.

Example compounds with recorded Kel:
compound | measured
CC(=O)Nc1ccc(C2=NN(Cc3cccnc3)c3nnc(C)n3-c3sc(C)c(C)c32)cc1.Cl [1 Hydrochloride of Example 71] | 0.57
CC(=O)Nc1ccc(C2=NN(Cc3cccnc3)c3nnc(C)n3-c3sc(C)c(C)c32)cc1.CC(=O)Nc1ccc(C2=NN(Cc3cccnc3)c3nnc(C)n3-c3sc(C)c(C)c32)cc1.O=C(O)CCC(=O)O [0.5 Succinate of Example 71] | 0.64
CC(=O)Nc1ccc(C2=NN(Cc3cccnc3)c3nnc(C)n3-c3sc(C)c(C)c32)cc1.O=C(O)/C=C\C(=O)O [1 Maleate of Example 71] | 0.64
CC(=O)Nc1ccc(C2=NN(Cc3cccnc3)c3nnc(C)n3-c3sc(C)c(C)c32)cc1.Cc1ccc(S(=O)(=O)O)cc1 [1 Tosylate of Example 71] | 0.52
CC(=O)Nc1ccc(C2=NN(Cc3cccnc3)c3nnc(C)n3-c3sc(C)c(C)c32)cc1.CC(=O)Nc1ccc(C2=NN(Cc3cccnc3)c3nnc(C)n3-c3sc(C)c(C)c32)cc1.O=C(O)/C=C/C(=O)O [0.5 Fumarate of Example 71] | 0.35

Alright, here's another compound for you.
Any idea what its Kel is? The compound is `CC(=O)Nc1ccc(C2=NN(Cc3cccnc3)c3nnc(C)n3-c3sc(C)c(C)c32)cc1` 0.55
